tested on: MCF-7; assay: Growth inhibition of MCF-7 (oestrogen receptor positive) breast cancer cell line; assay type: cell-based; conditions: Homo sapiens, MCF7, read-out: IC50 MCF7
EXPERIMENTAL ENDPOINT: log10 IC50 (log10 of the value in nM)
# log10 transformed; quantity=IC50; unit=nM

Problem: Item under review: COc1ccc2[nH]c(C(=O)N3CC(CCl)c4c3ccc3ccc(O)cc43)cc2c1 (stereo not shown) [DP78] . Reported log10 IC50?
Result: 3.01

Problem: What log10 IC50 value was documented for this compound, COc1ccc2[nH]c(C(=O)N3CC(CCl)c4c3cc(-c3ccc(N)cc3)c3ccccc43)cc2c1 (stereo not shown) [DP48] ?
Result: 2.85

Problem: Endpoint output: log10 IC50 of COc1ccc2[nH]c(C(=O)N3CC(CCl)c4c3cc(-c3cccc(O)c3)c3ccccc43)cc2c1 (stereo not shown) [DP47] . Value?
Result: 2.02

Problem: Fill blank: measured log10 IC50 of the compound COc1ccc2[nH]c(C(=O)N3CC(CCl)c4c3cc(-c3ccc(CO)cc3)c3ccccc43)cc2c1 (stereo not shown) [DP44] is ____.
Result: 3.68

Problem: # input compound: COc1ccc2[nH]c(C(=O)N3CC(CCl)c4c3cc(-c3ccc(O)cc3)c3ccccc43)cc2c1 (stereo not shown) [DP36] ; wanted: its log10 IC50
Result: 1.30
